# measurementNotes: Plasma pharmacokinetics, healthy subjects
# Format: in vivo, human
# testContext: human; plasma prodrug; healthy subjects; 50 mg oral dose; geometric mean (CV%); n = 6; read-out: AUC(0–∞)
observedProperty: AUC(0-inf)
# do not omit the unit; it follows the number

Lab note: measured AUC(0-inf) of CCOC(=O)OC[C@H]1O[C@@H](Oc2nn(C(C)C)c(C)c2Cc2ccc(OC(C)C)cc2)[C@H](O)[C@@H](O)[C@@H]1O [Remogliflozin etabonate, remogliflozin etabonate] was 3.7 ng·h/mL

====

# measurementNotes: Plasma pharmacokinetics, healthy subjects
# Assay type: in vivo, human
# testContext: human; plasma prodrug; healthy subjects; 150 mg oral dose; geometric mean (CV%); read-out: Cmax
observedProperty: Cmax (ng/mL)
Give bare numbers, in ng/mL.

Lab note: measured Cmax of CCOC(=O)OC[C@H]1O[C@@H](Oc2nn(C(C)C)c(C)c2Cc2ccc(OC(C)C)cc2)[C@H](O)[C@@H](O)[C@@H]1O [Remogliflozin etabonate, remogliflozin etabonate] was 17.6

====

# measurementNotes: Plasma pharmacokinetics, healthy subjects
# Type: in vivo, human
# testContext: human; plasma prodrug; healthy subjects; 20 mg oral dose; median; read-out: Tmax
observedProperty: Tmax (min)
Give bare numbers, in min.

Lab note: measured Tmax of CCOC(=O)OC[C@H]1O[C@@H](Oc2nn(C(C)C)c(C)c2Cc2ccc(OC(C)C)cc2)[C@H](O)[C@@H](O)[C@@H]1O [Remogliflozin etabonate, remogliflozin etabonate] was 37.5

====

# measurementNotes: Plasma pharmacokinetics, healthy subjects
# Format: in vivo, human
# testContext: human; plasma prodrug; healthy subjects; 150 mg oral dose; median; read-out: Tmax
observedProperty: Tmax

Lab note: measured Tmax of CCOC(=O)OC[C@H]1O[C@@H](Oc2nn(C(C)C)c(C)c2Cc2ccc(OC(C)C)cc2)[C@H](O)[C@@H](O)[C@@H]1O [Remogliflozin etabonate, remogliflozin etabonate] was 30.9 min

====

# measurementNotes: Plasma pharmacokinetics, healthy subjects
# Format: in vivo, human
# testContext: human, plasma, oral, healthy subjects; 20-1000 mg; read-out: median T½ estimates, range across doses
# Experimental: Ten healthy subjects were evaluated in 5 study sessions, each separated by approximately 2 weeks. At each study session, subjects received either an oral dose of remogliflozin etabonate or placebo after an overnight fast. […] The available safety and PK results from each dosing period were evaluated before proceeding to the next dose level. […] Ratios of AUC(0–∞) remogliflozin to AUC(0–last) remogliflozin etabonate were calculated including molecular weight corrections. […]
observedProperty: half-life

# compound, half-life
measured = [
    ("CCOC(=O)OC[C@H]1O[C@@H](Oc2nn(C(C)C)c(C)c2Cc2ccc(OC(C)C)cc2)[C@H](O)[C@@H](O)[C@@H]1O [Remogliflozin etabonate, remogliflozin etabonate]", "0.26 to 0.71 h"),
]

Lab note: measured half-life of Cc1[nH]nc(O[C@@H]2O[C@H](CO)[C@@H](O)[C@H](O)[C@H]2O)c1Cc1ccc(OC(C)C)cc1 was 1.54 to 3.5 h

====

# measurementNotes: Plasma pharmacokinetics, healthy subjects
# Format: in vivo, human
# testContext: human; plasma analyte; healthy subjects; remogliflozin etabonate 20 mg oral dose; read-out: AUC(0-∞) Geometric mean (CV%)
observedProperty: AUC(0-inf)
# do not omit the unit; it follows the number

# smilesInput, result
rows = [
    ("Cc1c(Cc2ccc(OC(C)C)cc2)c(O[C@@H]2O[C@H](CO)[C@@H](O)[C@H](O)[C@H]2O)nn1C(C)C", "133 ng·h/mL"),
]

Moving on to another molecule below.
Lab note: measured AUC(0-inf) of Cc1[nH]nc(O[C@@H]2O[C@H](CO)[C@@H](O)[C@H](O)[C@H]2O)c1Cc1ccc(OC(C)C)cc1 was 51.8 ng·h/mL

====

# measurementNotes: Plasma pharmacokinetics, healthy subjects
# Type: in vivo, human
# testContext: human; plasma analyte; healthy subjects; remogliflozin etabonate 1000 mg oral dose; read-out: Tmax Median
observedProperty: Tmax (h)
Give bare numbers, in h.

# smilesInput, Tmax, h
records = [
    ("Cc1[nH]nc(O[C@@H]2O[C@H](CO)[C@@H](O)[C@H](O)[C@H]2O)c1Cc1ccc(OC(C)C)cc1", 1.25),
]

Moving on to another molecule below.
Lab note: measured Tmax of Cc1c(Cc2ccc(OC(C)C)cc2)c(O[C@@H]2O[C@H](CO)[C@@H](O)[C@H](O)[C@H]2O)nn1C(C)C was 1.25

====

# measurementNotes: Plasma pharmacokinetics, healthy subjects
# Type: in vivo, human
# testContext: human; plasma analyte; healthy subjects; remogliflozin etabonate 500 mg oral dose; read-out: Cmax Geometric mean (CV%)
Kindly state Cmax for each of the entries shown.
One number for each entry, in ng/mL.

# smilesInput, unitTag, Cmax
data = [
    ("Cc1c(Cc2ccc(OC(C)C)cc2)c(O[C@@H]2O[C@H](CO)[C@@H](O)[C@H](O)[C@H]2O)nn1C(C)C", "ng/mL", 1700),
]

Moving on to another compound below.
Lab note: measured Cmax of Cc1[nH]nc(O[C@@H]2O[C@H](CO)[C@@H](O)[C@H](O)[C@H]2O)c1Cc1ccc(OC(C)C)cc1 was 498

====

# measurementNotes: Plasma pharmacokinetics, T2DM subjects
# Assay type: in vivo, human
# testContext: human, plasma analyte, remogliflozin etabonate 500 mg oral dose (prodrug n = 2), read-out: T½ Geometric mean (CV%) (converted)
Kindly state half-life for each of the entries shown.
Numbers only, in h.

Answered examples (2):
# compound, unitTag, half-life
measured = [
    ("Cc1[nH]nc(O[C@@H]2O[C@H](CO)[C@@H](O)[C@H](O)[C@H]2O)c1Cc1ccc(OC(C)C)cc1", "h", 3.28),
    ("Cc1c(Cc2ccc(OC(C)C)cc2)c(O[C@@H]2O[C@H](CO)[C@@H](O)[C@H](O)[C@H]2O)nn1C(C)C", "h", 3.93),
]

Moving on to another compound below.
Lab note: measured half-life of CCOC(=O)OC[C@H]1O[C@@H](Oc2nn(C(C)C)c(C)c2Cc2ccc(OC(C)C)cc2)[C@H](O)[C@@H](O)[C@@H]1O [Remogliflozin etabonate, remogliflozin etabonate] was 0.82

====

# measurementNotes: Plasma pharmacokinetics, healthy subjects
# Format: in vivo, human
# testContext: human, plasma, oral, both populations; independent of dose (abstract); read-out: mean plasma T½
observedProperty: half-life (h)
Give bare numbers, in h.

Lab note: measured half-life of Cc1c(Cc2ccc(OC(C)C)cc2)c(O[C@@H]2O[C@H](CO)[C@@H](O)[C@H](O)[C@H]2O)nn1C(C)C [Remogliflozin, remogliflozin] was 2

====

# measurementNotes: Plasma pharmacokinetics, T2DM subjects
# Type: in vivo, human
# testContext: human, plasma analyte, remogliflozin etabonate 500 mg oral dose, read-out: Tmax Median
observedProperty: Tmax (h)
Give bare numbers, in h.

Answered examples (2):
# compound, Tmax (h)
records = [
    ("CCOC(=O)OC[C@H]1O[C@@H](Oc2nn(C(C)C)c(C)c2Cc2ccc(OC(C)C)cc2)[C@H](O)[C@@H](O)[C@@H]1O [Remogliflozin etabonate, remogliflozin etabonate]", 0.75),
    ("Cc1c(Cc2ccc(OC(C)C)cc2)c(O[C@@H]2O[C@H](CO)[C@@H](O)[C@H](O)[C@H]2O)nn1C(C)C", 2.5),
]

Moving on to another compound below.
Lab note: measured Tmax of Cc1[nH]nc(O[C@@H]2O[C@H](CO)[C@@H](O)[C@H](O)[C@H]2O)c1Cc1ccc(OC(C)C)cc1 was 2.75

====

Kindly state AUC(0-inf) for each of the entries shown.
# measurementNotes: Plasma pharmacokinetics, healthy subjects
# Format: in vivo, human
# testContext: human; plasma analyte; healthy subjects; remogliflozin etabonate 500 mg oral dose; read-out: AUC(0-∞) Geometric mean (CV%)
Give bare numbers, in ng·h/mL.

# smilesInput, observedProperty, numericResult
measured = [
    ("Cc1c(Cc2ccc(OC(C)C)cc2)c(O[C@@H]2O[C@H](CO)[C@@H](O)[C@H](O)[C@H]2O)nn1C(C)C", "AUC(0-inf)", 3720),
]

Moving on to another compound below.
Lab note: measured AUC(0-inf) of Cc1[nH]nc(O[C@@H]2O[C@H](CO)[C@@H](O)[C@H](O)[C@H]2O)c1Cc1ccc(OC(C)C)cc1 was 1520

====

# measurementNotes: Plasma pharmacokinetics, T2DM subjects
# Type: in vivo, human
# testContext: human, plasma analyte, remogliflozin etabonate 500 mg oral dose (prodrug n = 2), read-out: AUC(0–∞) Geometric mean (CV%)
observedProperty: AUC(0-inf) (ng·h/mL)
Numbers only, in ng·h/mL.

Below are 2 compounds. Give each one its AUC(0-inf).
1. Cc1[nH]nc(O[C@@H]2O[C@H](CO)[C@@H](O)[C@H](O)[C@H]2O)c1Cc1ccc(OC(C)C)cc1
2. CCOC(=O)OC[C@H]1O[C@@H](Oc2nn(C(C)C)c(C)c2Cc2ccc(OC(C)C)cc2)[C@H](O)[C@@H](O)[C@@H]1O [Remogliflozin etabonate, remogliflozin etabonate]

1290
91.9

Lab note: measured AUC(0-inf) of Cc1c(Cc2ccc(OC(C)C)cc2)c(O[C@@H]2O[C@H](CO)[C@@H](O)[C@H](O)[C@H]2O)nn1C(C)C was 5180
